# tested-target: T1, RSV F ectodomain stabilized in the postfusion conformation (F ΔFP), subtype B (Respiratory syncytial virus subtype B, UniProt P13843 26-109; P13843 147-524)
# T1 construct: extracellular domain; trimer; also called Postfusion subtype B; postF subtype B
# protocol: BLI, IgG on AHQ sensor, 100 nM antigen
pKd: −log10 of the molar value.
pKd vs 9: at or above is class 1, below is class 0.

Before answering, review these 4 worked examples.
ADI-14469 (antibody, V domains shown, full-length IgG (yeast-expressed); also called Antibody Number 32; Ab# 32) VH: QVQLVESGPTLVKPTQTLTLTCTFSGFSLTTRGVGVGWVRQPPGKALEFLGLTHWDDDKIYSPSLRRRLTITKDTSKNQVVLALANVDPVDTATYFCVKSDLYDRGGYYLYYFDYWGQGTLVTVSS VL: EIVLTQSPSSLSASVGDRVTITCRASQTIPSYVNWYLQRPGEAPKLLIYGASNLHTGAPPTFIGRGSGADFTLTINTLQPEHFGTYYCQQTFSSPYTFGQGTKVEIK ... class 0
ADI-14499 (antibody, V domains shown, full-length IgG (yeast-expressed); also called Antibody Number 60; Ab# 60) VH: QVQLVQSGPALVKPTQTLTLTCTFSGFSLTTRGVGVGWIRQTPGKALECLGFIYWDDDMNYNPSLRGRVTITRDTSKNQVVLTMTNMAPVDTGTYYCVHSDLYDSSGYYLYYFDYWGQGTLVTVSS VL: DIRLTQSPSSLSASVGDRVTITCRASQPIASYLNWYQQKPGKAPKLLIYAASNLQSGVPSTFSGRGSGTDFSLTISTLQPEDIATYYCQQSYTSPYTFGQGTKVEIK ... class 0
ADI-14450 (antibody, V domains shown, full-length IgG (yeast-expressed); also called Antibody Number 13; Ab# 13) VH: QVQLVQSGGGLVKPGGSRRLACAASGFIFRNAWMSWVRQAPGKGLEWVGRIKRTSEGGSVDYATPVQGRFSISRDDSRNTLYLQMHSLAPDDTAVYYCSTGPPYSYFDSTGYSVVDYWGQGTLVTVSS VL: QSVLTQPPSASGTPGQRVTISCSASSSNIGDNYFYWYQQLPGKAPTLLMYGSDQRSSGVPDRFSGSQSGTSASLAISGLRSEDEAAYYCAAWDDSLSGPVFGGGTQLTVL ... class 1
ADI-14449 (antibody, V domains shown, full-length IgG (yeast-expressed); also called Antibody Number 12; Ab# 12) VH: EVQLVESGGDLVKPGGSLRLSCEGSGFIFPNAWMSWVRQAPGKGLEWVGRIKSNTDGGTTDYGAPVKGRFTISRDDSTNTMYLHMNSLKTEDTAVYFCSTGPPYKYFDETGYSVVDYWGQGTLVTVSS VL: SYELTQPPSASGTPGQRVIISCSGSTSNSGYNYFYWYQQRPGTAPKLLIYGSDQRPSGVPDRFSGSQSGPSASLAISGLRSEDEAHYYCAAWDDNLSGPVFGGGTKLTVL ... class 1

Inquiry: # bool: pKd of ADI-14497 (antibody, V domains shown, full-length IgG (yeast-expressed); also called Antibody Number 58; Ab# 58) VH: QITLKESGPTLVKPTQTLTLTCTFSGFSLTTRGVGVGWIRQPPGKALEFLGFIHWDDDKTYSPSLRRRLTITKDTSNNEVVLTMTNMDPVDTATYYCVHSDLYDSGGYYLYYFDYWGQGTLVTVSS VL: EIVMTQSPSSLSASVGDRVTITCRASQPIPSYVNWYQQRPGKAPKLLIYAASNLQSGVSSKFSGRGFGTDFTLTIDTLQPEDFATYYCQQVYTSPYTFGQGTKLEIK >= 9
Reply text: class 0
